# measured.on: recombinant HA, subtype H5 (A/Vietnam/1203/2004 (H5N1)) (influenza A virus A/Vietnam/1203/2004 …, UniProt Q80A26 6-554)
# protocol.text: ELISA, coated HA, IgG 5 µg/ml
Parameter threshold = 1 OD 492 nm. Response is fulfilled when OD 492 nm meets or exceeds it, else not fulfilled.

CR6257 (antibody, V domains shown) VH: QVQLVQSGAEVKKPGSSVKVSCKASGGPFRSYAISWVRQAPGQGPEWMGGIIPIFGTTKYAPKFQGRVTITADDFAGTVYMELSSLRSEDTAMYYCAKHMGYQVRETMDVWGKGTTVTVSS VL: QSALTQPAAVSGSPGQSITISCTGTSSDVGGYNYVSWYQQHPGKAPKLMIYEVSNRPSGVSNRFSGSKSGNTASLTISGLQAEDEADYYCSSYTSSSTYVFGTGTKVTVLG :: fulfilled
CR6314 (antibody, V domains shown) VH: EVQLVESGAEVKKPGSSVKVSCKASGGPFRSYAISWVRQAPGQGPEWMGGIIPIFGTTKYAPKFQGRVTITADDFAGTVYMELSSLRSEDTAMYYCAKHMGYQVRETMDVWGKGTTVTVSS VL: SYVLTQPPSASGTPGQRVTISCSGSSSNIGSNYVYWYQQLPGTAPKLLIYRDGQRPSGVPDRFSGSKSGTSASLAISGLRSDDEADYYCATWDDNLSGPVFGGGTKLTVLG :: fulfilled
CR6343 (antibody, V domains shown) VH: QVQLVQSGAEVKKPGSSVKVSCKASGVTFSYYAMSWVRQAPGQGLEWMGGISPMFGTTTYAQKFQGRVTITADDSTSTAYMEVRSLRSEDTAVYYCARSSNYYDSVYDYWGQGTLVTVSS VL: QSVVTQPPSESVAPGQTARITCGGHNIGSNSVHWYQQKPGQAPVLVVYDNSDRPSGIPERFSGSNSGNTATLTISRVEAGDEADYYCQVWGSSSDHYVFGTGTKVTVLG :: not fulfilled

Could you verify whether the entry CR6334 (antibody, V domains shown) VH: EVQLVETGAEVKKPGSSVKVPCKSSGSPFRSNAVSWVRQAPGQGLEWVGGILGVFGSPSYAQKFQGRVTITADESTNTVHMELRGLRSEDTAVYYCARGPTYYYSYMDVWGKGTTVTVSS VL: SYVLTQPPSESVAPGQTARITCGGNNIGRNSVHWYQQKPGQAPVLVVYDDSDRPSGIPERFSGSKSGNTATLIISRVEVGDEADYYCQVWHSSSDHYVFGTGTKVTVLG shows OD 492 nm of no less than 1 OD 492 nm?
fulfilled

Quick check, OD 492 nm >= 1 OD 492 nm? CR6260 (antibody, V domains shown) VH: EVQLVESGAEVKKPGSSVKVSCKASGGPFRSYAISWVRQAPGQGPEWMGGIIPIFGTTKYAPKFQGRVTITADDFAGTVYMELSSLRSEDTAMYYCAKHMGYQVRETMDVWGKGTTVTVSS VL: SYVLTQPPSVSGTPGQRVTISCSGSRSNVGDNSVYWYQHVPEMAPKLLVYKNTQRPSGVPARFSGSKSGTSASLAIIGLQSGDEADYYCVAWDDSVDGYVFGSGTKVTVLG
fulfilled
